measuredQuantity: melting point

Some solved cases for reference:
CCCSc1nc(-c2ccc(C#N)cc2)cn1-c1ccc(C#N)cc1
117 to 122 °C
COc1ccc(-c2cc(=S)n(Cc3cc(OC)c(OC)c(OC)c3)nc2-c2ccc(OC)cc2)cc1
142 to 146 °C
COC(=O)c1ccccc1S(=O)(=O)NCC#N
110 °C

QUERY: Which melting point is reported for this compound? `CCN1c2ncc(CNc3cccc([N+](=O)[O-])c3)cc2C(=O)N(C)c2ccc(Cl)nc21`
RESULT: 171 to 172 °C

QUERY: Which melting point is reported for this compound? O=C(Nc1nccs1)C(CC1CCCC1)c1ccc(Br)cc1 (stereo not given)
RESULT: 201 to 202 °C

###

melting point values by entry

COc1cc(OC)nc(C2OC(=O)c3c(-c4cccs4)ccnc32)n1 (stereo not drawn)
120 to 123 °C
CC(=O)OCC(=O)C1(OC(=O)c2ccccc2)CCC2C3CC(C)C4=CC(=O)C=CC4(C)C3C(O)CC21C (stereo not drawn)
258 °C
Cc1cc(-c2cc(COS(C)(=O)=O)c(=O)n(CC=Cc3ccc(Cl)cc3)n2)ccc1F
118 to 120 °C
COCc1cc2c(N)cccc2cn1
105 °C
C=CCn1c(S)nc2c(cnn2C)c1=O
171 to 174 °C
O=C(CCCOc1ccc(OCc2ccccc2)cc1)C(F)(F)F
51 to 53 °C
CSC1NC(=O)N(C(C)C)C(=O)N1N=C(C)C (stereo not drawn)
110 to 112 °C
CCN1CC([N+](=O)[O-])=C(N(C)C)N(Cc2cccnc2)C1
97 to 98 °C

QUERY: Which melting point is reported for this compound? `COc1cc(OCc2ccccn2)ccc1/C=C/c1cc(/C=C/c2ccc(OCc3ccccn3)cc2OC)[nH]n1`
RESULT: 195 to 197 °C

QUERY: Which melting point is reported for this compound? `CCCC1(CCC)c2ccccc2-c2cc3c(cc21)OCN3c1c(O)ccc2oc3ccccc3c12`
RESULT: 304 to 305 °C

QUERY: Which melting point is reported for this compound? Cc1occc1S(=O)(=O)C(C)(Cc1ccc(OCCN2CCCCC2)cc1)C(=O)NO (stereo not drawn)
RESULT: 115 to 117 °C

QUERY: Which melting point is reported for this compound? `CCN(CC)CCCNc1ncc2cc(-c3c(Cl)cccc3Cl)c(NC(=O)NC(C)C)nc2n1`
RESULT: 88 to 100 °C

QUERY: Which melting point is reported for this compound? `O=C(O)c1cccnc1C(=O)c1cccc(C(F)(F)F)c1`
RESULT: 147 to 150 °C

QUERY: Which melting point is reported for this compound? `CNC(=O)c1ccc(COCc2csc3nc(C(=O)NCc4cccc(OC)c4)[nH]c(=O)c23)cc1`
RESULT: 190 to 191 °C

###

melting point values by entry

CCCOc1ccc2c(c1)C(=O)c1cccc(OC)c1-2
96 to 97 °C
N#CCCn1c(=O)n(C2CCN(CCNC(=O)c3ccc(F)cc3)CC2)c2ccccc21
172 °C

QUERY: Which melting point is reported for this compound? `Cn1ccnc1N=Cc1ccccc1`
RESULT: 71 to 72 °C

###

measuredQuantity: melting point

Some solved cases for reference:
O=S(CCCCCl)Cc1ccc(Cl)c(Cl)c1 (configuration not stated)
155 to 158 °C
Cc1cc(Cl)ccc1NC(=O)NC(=O)C(Cl)CCl (configuration not stated)
111 to 113 °C
CC(C(=O)c1ccc(Cl)c(Cl)c1)C(O)C(=O)O (configuration not stated)
103 to 104 °C
Cc1cccc(C2(C(N)=S)CCCS2)n1 (configuration not stated)
171 °C
O=C(O)CCC(=O)Nc1ccc(C(=O)N2CCCCc3ccccc32)cc1
192 °C

QUERY: Which melting point is reported for this compound? `Cn1c(=O)c(-c2c(Cl)cccc2Cl)cc2cnc(Nc3ccc(CC(=O)O)cc3)nc21`
RESULT: 286 to 290 °C

QUERY: Which melting point is reported for this compound? `CS(=O)(=O)N1CCN(c2ccc(N)cc2)CC1`
RESULT: 192 to 193 °C

QUERY: Which melting point is reported for this compound? `COc1ccc2c(c1)c(CC(=O)Oc1ccc(CN3CCN(CC(C)(C)SN=O)CC3)cc1)c(C)n2C(=O)c1ccc(Cl)cc1`
RESULT: 90 to 92 °C

QUERY: Which melting point is reported for this compound? CCC(NC(=NC#N)Nc1ccc(N)nc1)c1ccccc1 (configuration not stated)
RESULT: 178 °C

QUERY: Which melting point is reported for this compound? `CC(=O)N1CCc2ccc(C(=O)c3cccc(F)c3)cc2C1`
RESULT: 136 to 139 °C

FYI, the data here is from a melting point compilation (Tetko et al.; mined from patent text by program, amines drawn as free bases though some values may be those of a salt).
